Recorded values, source paper PMC5540273.

# Test system: CSNK1E
# Details: concentration: 1 μM, replicates: in singlicate; n = 1;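 also: KINOMEscan kinase panel screen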
The threshold is inclusive: %Inh of exactly 20% counts as Y; values below receive N.

compound="COc1ccc(Nc2nccc(N3CCC(NC(=O)Nc4cc(C)ccc4C)C3)n2)cc1 (stereo not drawn) [GSK1379741]" cat=N
compound="COc1ccc(CNC(=O)NC2CCN(c3ccnc(Nc4ccc(OC)cc4)n3)C2)cc1 (stereo not drawn) [GSK1379727]" cat=N
compound=CCc1nc(-c2cccc(C)c2)c(-c2ccnc(NCc3ccccc3)c2)s1 cat=N

IN: Can `COc1cc2c(cc1OCCN1CCN(C)CC1)ncc1c3ccc(C#N)cc3[nH]c21` be said to have %Inh at or above 20%?
OUT: N

IN: Can CN(C(=O)c1ccc(-c2cc(-c3c[nH]nc3-c3ccccn3)ccn2)cc1)C1CCOCC1 [GW810083] be said to have %Inh at or above 20%?
OUT: Y

IN: Can c1ccc(-c2cc(-c3c[nH]nc3-c3ccccn3)ccn2)cc1 [GW576604] be said to have %Inh at or above 20%?
OUT: N

IN: Can Cc1ccc(NC(=O)c2ccnc(N3CCN(C)CC3)c2)cc1-c1ccc(C(=O)NCC2CC2)cc1 [GW775604] be said to have %Inh at or above 20%?
OUT: Y

IN: Can O=C(c1ccc(-c2cc(-c3c[nH]nc3-c3ccccn3)ccn2)cc1)N1CCOCC1 [GW812171] be said to have %Inh at or above 20%?
OUT: N

---

# Test system: EGFR
# Details: concentration: 1 μM, replicates: in singlicate; n = 1
Test readout: %Inh (%)
Answers are plain numbers, in %.

Previously resolved entries follow.
smiles_record=Cc1ccc(C(=O)NCC(N)=O)cc1-n1c(C)cc(OCc2ccc(F)cc2F)c(Br)c1=O number=11
smiles_record=Fc1ccc(-c2ncn(CCCN3CCOCC3)c2-c2cccnc2)cc1 number=0
smiles_record=Cc1nnc(-c2ccc(C)c(-c3ccc(C(=O)Nc4ccc(NS(C)(=O)=O)cc4)cc3)c2)o1 number=13

Now take the following compound into account.
The measured %Inh associated with `O=C(Nc1cccc(-c2nn3ncccc3c2-c2ccnc(Nc3cccc(C(F)(F)F)c3)n2)c1)c1c(F)cccc1F` reads 99.1

---

# Tested on: MELK
# Details: concentration: 1 μM, replicates: in singlicate; n = 1
Test readout: %Inh (%)
Give bare numbers, in %.

Previously resolved entries follow.
smiles_record=Nc1nc(-c2ccc3c(N)n[nH]c3c2)cc(N2CCCC2)n1 unit_info=% number=0
smiles_record=COc1ccc(S(=O)(=O)NC2CCN(c3cc(C)nc(Nc4cccc(C#N)c4)n3)CC2)cc1.O=C(O)C(F)(F)F unit_info=% number=0
smiles_record=COC(=O)Nc1nc2cc(Oc3ccc(NC(=O)Nc4cc(F)ccc4F)cc3)ccc2[nH]1.Cl unit_info=% number=10
smiles_record=Cc1ccc(NC(=O)c2ccnc(N3CCN(C)CC3)c2)cc1-c1ccc(C(=O)NCC2CC2)cc1 unit_info=% number=0
smiles_record=Cc1nnc(-c2ccc(C)c(-c3ccc(C(=O)Nc4ccc(NS(C)(=O)=O)cc4)cc3)c2)o1 unit_info=% number=10
smiles_record=Cc1ccc(C(=O)NCC(N)=O)cc1-n1c(C)cc(OCc2ccc(F)cc2F)c(Br)c1=O unit_info=% number=24
smiles_record=O=c1cc(N2CCOCC2)nc2n(Cc3cccc4ccccc34)ccn12 unit_info=% number=0

The measured %Inh associated with `COc1ccc(COc2cc(-n3cnc4ccccc43)sc2C(N)=O)cc1` reads 0

---

# Tested on: BTK
# Details: concentration: 1 μM, replicates: in singlicate; n = 1
Test readout: %Inh (%)
Give bare numbers, in %.

smiles_record=Cc1cccc(-c2nc(-c3ccc(S(C)(=O)=O)cc3)sc2-c2ccncc2)c1 assay_system=BTK test_readout=%Inh unit_info=% number=0

Would you be so kind as to report %Inh for each listed record?
1. CCc1nc(-c2cccc(C)c2)c(-c2ccnc(NCc3ccccc3)c2)s1
2. O=c1cc(N2CCOCC2)nc2n(Cc3cccc(F)c3)ccn12
3. Cn1cc(-c2ccc3c(c2)CCN3C(=O)Cc2ccccc2Cl)c2c(N)ncnc21
4. O=C(NOCC1CC1)c1ccc(F)c(F)c1Nc1ccc(I)cc1Cl

OUT:
1: 0; 2: 0; 3: 95.6; 4: 0

---

# Test system: WEE1
# Details: concentration: 1 μM, replicates: in singlicate; n = 1
Would you mind telling me the reported %Inh of each entry?

smiles_record=c1ccc(-c2cc(-c3c[nH]nc3-c3ccccn3)ccn2)cc1 assay_system=WEE1 result=2%
smiles_record=O=c1cc(N2CCOCC2)nc2n(Cc3cccc4ccccc34)ccn12 assay_system=WEE1 result=13%
smiles_record=C[C@@H](Oc1cc(-n2cnc3ccc(NC(=O)NC(C)(C)C)cc32)sc1C(N)=O)c1ccccc1Cl assay_system=WEE1 result=5%

Would you be so kind as to report %Inh for each listed record?
1. CSc1ccc(-c2cc3ncnc(SCC(=O)O)c3s2)cc1
2. CN1c2ccc(CNc3ccc(F)cc3)cc2-c2c(cnn2C)S1(=O)=O

OUT:
["0%", "2%"]

Would you be so kind as to report %Inh for each listed record?
1. CCc1ccnc(/C=C/c2n[nH]c3cc(Sc4ccccc4C(=O)NC)ccc23)c1
2. N#Cc1ccc(-c2cc(-c3c[nH]nc3-c3ccccn3)ccn2)cc1
3. NS(=O)(=O)c1cccc(-c2ccc3ncc(N4CCOCC4)nc3c2)c1

OUT:
1. 0%
2. 2%
3. 5%

The measured %Inh associated with `CNc1ncnc2[nH]ncc12` reads 5%

---

# System: DYRK2
# Details: concentration: 1 μM, replicates: in singlicate; n = 1
Test readout: %Inh (%)
Numbers only, in %.

Would you be so kind as to report %Inh for each listed record?
1. CCc1nc(-c2cccc(C)c2)c(-c2ccnc(NCc3ccccc3)c2)s1
2. O=C(c1ccc(-c2cc(-c3c[nH]nc3-c3ccccn3)ccn2)cc1)N1CCOCC1 [GW812171]
3. Cl.Nc1ncnc2occ(-c3ccc(NC(=O)Nc4cc(C(F)(F)F)ccc4F)cc3)c12 [SB-707548]
4. COc1ccc(Nc2ncc(C#N)c(Nc3ccccc3C(N)=O)n2)cc1N1CCN(C)CC1.Cl [GSK1558669]
5. O=C(NCCNc1ccnc(Nc2ccc(F)cc2)n1)Nc1ccccc1F [GSK1379880]

OUT:
1. 2
2. 33
3. 14
4. 99.1
5. 12

Would you be so kind as to report %Inh for each listed record?
1. Fc1ccc(-c2nn3c(OCC(F)(F)F)cccc3c2-c2ccncc2)cc1 [GW514784]
2. c1ccc(-c2n[nH]cc2-c2ccnc3ccccc23)nc1 [GW271431]
3. COc1ccc(COc2cc(-n3cnc4ccccc43)sc2C(N)=O)cc1 [GSK1024304]
4. O=C(Nc1n[nH]c2cc(-c3cccc(F)c3)ccc12)C1CC1 [SB-735464]

OUT:
10
0
12
16

Would you be so kind as to report %Inh for each listed record?
1. Cc1nnc(-c2ccc3ncc(-c4ccc(S(C)=O)cc4)n3c2)o1 (stereo not drawn)
2. CC(=O)Nc1ccc(COc2ccc(Nc3ccnc4cc(-c5ccccn5)ccc34)cc2)cc1.Cl [GW440148]

OUT:
6
11

Would you be so kind as to report %Inh for each listed record?
1. NS(=O)(=O)c1cccc(-c2ccc3nccc(-c4cccc(S(N)(=O)=O)c4)c3c2)c1 [GW867253]
2. Cn1ccc2ncnc(Oc3ccc(NC(=O)Nc4ccncc4)c(Cl)c3)c21
3. O=C(NOCC1CC1)c1ccc(F)c(F)c1Nc1ccc(I)cc1Cl
4. COc1cc2c(cc1OC[C@@H](O)CO)ncc1c3ccc(C#N)cc3[nH]c21
5. Cc1ccc(NC(=O)c2ccnc(N3CCN(C)CC3)c2)cc1-c1ccc(C(=O)NCC2CC2)cc1 [GW775604]

OUT:
32
0
0
86
0

Would you be so kind as to report %Inh for each listed record?
1. O=C(NCCCN1CCOCC1)c1cccc(Nc2nccc(Nc3ccc(Oc4ccccc4)cc3)n2)c1 [GW663929]
2. Fc1ccc(-c2ncn(CCCN3CCOCC3)c2-c2cccnc2)cc1 [SB-211743]

OUT:
1. 16
2. 24

---

# Tested on: TXK
# Details: concentration: 1 μM, replicates: in singlicate; n = 1
Would you mind telling me the reported %Inh of each entry?
Give bare numbers, in %.

Would you be so kind as to report %Inh for each listed record?
1. Nc1nccc(-c2c(-c3ccc(F)cc3)ncn2C2CCN(CC(F)(F)F)CC2)n1
2. COc1ccc(Nc2nccc(N3CCC(NC(=O)Nc4cccc(C(C)=O)c4)C3)n2)cc1 (stereo not drawn)
3. O=C1NC(=O)C(N2CCc3ccccc32)=C1c1cccc(Cl)c1
4. Cc1c(Cn2c(C)nn3c(=O)cc(N4CCOC(C)C4)nc23)cccc1C(F)(F)F (stereo not drawn)
5. Cn1ccc2ncnc(Oc3ccc(NC(=O)Nc4ccncc4)c(Cl)c3)c21
6. COc1cc2c(cc1OC[C@@H](O)CO)ncc1c3ccc(C#N)cc3[nH]c21
7. O=C(Nc1n[nH]c2cc(-c3cccc(F)c3)ccc12)C1CC1

OUT:
[0, 0, 0, 0, 0, 0, 14]

Would you be so kind as to report %Inh for each listed record?
1. CCc1nc(-c2cccc(C)c2)c(-c2ccnc(NCc3ccccc3)c2)s1
2. CN1c2ccc(NCc3ccc(F)cc3)cc2-c2c(cnn2C)S1(=O)=O
3. CC(C)(C)n1cnc2c(N)ncnc21
4. COc1cc2ncn(-c3cc(OCc4sccc4Cl)c(C(N)=O)s3)c2cc1OC
5. COc1cc(Nc2nccc(N3CCC(NC(=O)c4cccc(NC(C)=O)c4)C3)n2)cc(OC)c1OC (stereo not drawn)
6. Cc1ccc(NC(=O)c2ccnc(N3CCN(C)CC3)c2)cc1-c1ccc(C(=O)NCC2CC2)cc1
7. Cc1nnc(-c2ccc3ncc(-c4ccc(S(C)=O)cc4)n3c2)o1 (stereo not drawn)

OUT:
[0, 0, 0, 0, 7, 0, 0]
